Target: T1, IFIT5 Q41E/K150M/R253M (UniProt Q13325 1-482, Q41E;K150M;R253M)
T1 sequence: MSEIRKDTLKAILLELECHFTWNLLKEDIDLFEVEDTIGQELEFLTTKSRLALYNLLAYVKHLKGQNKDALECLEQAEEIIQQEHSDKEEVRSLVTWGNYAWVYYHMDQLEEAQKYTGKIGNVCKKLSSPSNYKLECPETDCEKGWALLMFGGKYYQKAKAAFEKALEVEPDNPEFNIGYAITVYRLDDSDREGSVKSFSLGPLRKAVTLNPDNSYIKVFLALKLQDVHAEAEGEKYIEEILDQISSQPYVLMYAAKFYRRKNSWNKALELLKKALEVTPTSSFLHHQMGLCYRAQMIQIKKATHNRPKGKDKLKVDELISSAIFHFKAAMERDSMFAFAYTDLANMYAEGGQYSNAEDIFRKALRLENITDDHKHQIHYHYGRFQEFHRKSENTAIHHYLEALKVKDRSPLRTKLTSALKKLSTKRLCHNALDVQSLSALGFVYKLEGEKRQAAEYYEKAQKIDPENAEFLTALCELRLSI
Assay: MST; apparent; replicates with and without 1 mM Mg2+ pooled; MST: PBS, 5% glycerol, 0.5 mM TCEP, 0.05% Tween20, +/-1 mM MgCl2 (K150M always with 1 mM MgCl2), 10 nM Cy5-RNA, 22 C, 10 min incubation; pH not stated
Conditions: protein: recombinant; tags: N-terminal His tag (pETG10a); label: 3'-Cy5; single strand, 12 nt
Quantity: Kd (nM)
Report the figure in nM without appending any unit label.

Exam item: Output measured Kd for this item: AAAAAGGAAGGU (ssRNA, 5'-triphosphate) [5'-ppp-AAAAAGGAAGGU-Cy5]
Marked response: 1980

Cited source for all entries: paper PMC9677429
